target: HLA-B*07:02 class I complex (biotinylated heavy chain with beta2-microglobulin) (human); assay: UV peptide exchange + HLA class I ELISA; % of Pos control peptide; details: remark: other sources report otherwise
Just so you know, the groups by exchange rate with Pos peptide go like this: bin 1 = under 8%, bin 2 = from 8% up to 40%, bin 3 = 40% and over

YCMAAPMGL (here or on the partner: biotinylated heavy chain) [P76 9-mer neoantigen peptide … (AR-V3 splice variant)] :: bin 3
CPMSRLRLA (here or on the partner: biotinylated heavy chain) [P46 9-mer neoantigen peptide … (TP53 (R213D) frameshift)] :: bin 3
FLFLLLPLS (here or on the partner: biotinylated heavy chain) [P87 9-mer neoantigen peptide … (AR-Intron splice variant)] :: bin 1

From here, focus on the item given below.
Category of RAKCKFSIL (here or on the partner: biotinylated heavy chain) [P56 9-mer neoantigen peptide … (SPOP(F102C) missense)] , please. bin 3
